// boundary case: melting point equal to 200 °C maps to FALSE; strictly smaller maps to TRUE

Decide: melting point of O=C(NC(Cc1ccccc1)C(=O)O)c1ccc2cc(OCc3cccc(Cl)c3)ccc2c1 (stereo not shown) strictly below 200 °C?
TRUE

Decide: melting point of O=C(NC(Cc1ccccc1)C(=O)O)c1ccc2cc(OCc3cccc4ccccc34)ccc2c1 (stereo not shown) strictly below 200 °C?
FALSE

Decide: melting point of O=C(NC(Cc1ccccc1)C(=O)O)c1ccc2cc(OCc3ccc(Br)cc3)ccc2c1 (stereo not shown) strictly below 200 °C?
FALSE

Decide: melting point of CCCOc1cccc(COc2ccc3cc(C(=O)NC(Cc4ccccc4)C(=O)O)ccc3c2)c1 (stereo not shown) strictly below 200 °C?
TRUE

Decide: melting point of O=C(NC(Cc1ccccc1)C(=O)O)c1ccc2cc(OCCCc3ccccc3)ccc2c1 (stereo not shown) strictly below 200 °C?
TRUE

Decide: melting point of O=C(NC(Cc1ccccc1)C(=O)O)c1ccc2cc(OCC3CCCCC3)ccc2c1 (stereo not shown) strictly below 200 °C?
FALSE

Decide: melting point of O=C(NC(Cc1ccccc1)C(=O)O)c1ccc2cc(OCc3cccc(OCC4CCCCC4)c3)ccc2c1 (stereo not shown) strictly below 200 °C?
TRUE

Decide: melting point of O=C(NC(Cc1ccccc1)C(=O)O)c1ccc2cc(OCc3cccc(C(F)(F)F)c3)ccc2c1 (stereo not shown) strictly below 200 °C?
TRUE

Values were extracted from patent US20060166989A1.
